- testedTarget: hGluR1 flip (Homo sapiens, UniProt P42261)
- Construct: expressed in transfected cells; host or cells: CHO-K1
- Sequence (P42261 19-906 isoform P42261-2 limits assumed): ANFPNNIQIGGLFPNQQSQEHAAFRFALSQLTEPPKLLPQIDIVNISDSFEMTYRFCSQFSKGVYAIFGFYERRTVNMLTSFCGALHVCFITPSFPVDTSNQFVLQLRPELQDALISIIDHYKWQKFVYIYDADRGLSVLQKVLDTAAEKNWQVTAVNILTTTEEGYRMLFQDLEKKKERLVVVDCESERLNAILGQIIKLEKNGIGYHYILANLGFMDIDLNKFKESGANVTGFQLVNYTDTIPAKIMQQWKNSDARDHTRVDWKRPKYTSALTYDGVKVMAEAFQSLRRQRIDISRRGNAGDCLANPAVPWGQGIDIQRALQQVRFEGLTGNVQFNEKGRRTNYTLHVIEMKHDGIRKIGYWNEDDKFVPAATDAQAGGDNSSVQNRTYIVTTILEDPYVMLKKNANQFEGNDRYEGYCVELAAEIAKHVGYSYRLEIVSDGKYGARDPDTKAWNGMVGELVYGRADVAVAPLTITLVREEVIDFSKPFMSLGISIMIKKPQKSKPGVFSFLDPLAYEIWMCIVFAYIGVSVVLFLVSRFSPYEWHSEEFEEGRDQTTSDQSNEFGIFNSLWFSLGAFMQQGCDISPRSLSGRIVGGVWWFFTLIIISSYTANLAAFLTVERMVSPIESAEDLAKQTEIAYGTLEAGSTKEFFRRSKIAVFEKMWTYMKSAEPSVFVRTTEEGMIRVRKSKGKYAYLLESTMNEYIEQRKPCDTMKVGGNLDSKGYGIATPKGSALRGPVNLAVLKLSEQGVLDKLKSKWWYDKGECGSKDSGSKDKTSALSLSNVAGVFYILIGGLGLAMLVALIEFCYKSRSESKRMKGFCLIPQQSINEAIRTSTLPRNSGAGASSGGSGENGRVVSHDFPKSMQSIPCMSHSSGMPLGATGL
- Sequence (Q9Y698 whole entry partner): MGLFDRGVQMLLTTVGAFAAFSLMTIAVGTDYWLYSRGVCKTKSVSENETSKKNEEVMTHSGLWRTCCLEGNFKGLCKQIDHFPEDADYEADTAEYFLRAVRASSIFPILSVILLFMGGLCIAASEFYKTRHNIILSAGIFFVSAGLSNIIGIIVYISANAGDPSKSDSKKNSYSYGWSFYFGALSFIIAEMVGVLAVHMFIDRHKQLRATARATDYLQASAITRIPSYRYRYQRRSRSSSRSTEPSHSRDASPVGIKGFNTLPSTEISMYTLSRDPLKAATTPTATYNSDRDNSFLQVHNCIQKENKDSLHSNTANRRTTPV
- protocolNotes: AMPA receptor function-enhancing activity using calcium influx as index
- Assay type: cell-based
- condition: test compound 30 μM with 3 mM glutamic acid; CHO-K1/GluR1 flip/stargazin-expressing cells; 100% = 3 mM glutamic acid + 300 μM cyclothiazide, 0% = 3 mM glutamic acid alone
- Description: Experimental Example 1 Measurement Method of AMPA Receptor Function-Enhancing Activity of Compound Using Calcium Influx as Index (1) Construction of Expression Gene Human GluR^1 flip cDNA was amplified by PCR method using forward primer […] (SEQ ID NO: 1) and reverse primer […] (SEQ ID NO: 2) artificially synthesized using human brain-derived cDNA (BD Bioscience) as a template. […]
measuredAttribute: activation at 30 µM (%)

# molecule, scaleUnit, activation at 30 µM
measured = [
    ("O=C(c1ccc(-c2cccn3c(=O)cc(C(F)(F)F)nc23)cc1)N1CCC(O)C(F)(F)C1 (centres unmarked)", "%", 72.7),
    ("CO[C@@H]1CCN(C(=O)c2ccc(-c3cccn4c(=O)c(C)c(C(F)(F)F)nc34)cc2F)C1", "%", 89.3),
    ("Cc1c(C(F)(F)F)nc2c(-c3ccc(C(=O)N4CCOC(F)(F)C4)cc3)cccn2c1=O", "%", 88.4),
    ("Cc1c(C(F)(F)F)nc2c(-c3ccc(C(=O)NC4CCOCC4)cc3)cccn2c1=O", "%", 86.7),
    ("Cc1c(C(F)(F)F)nc2c(-c3ccc(C(=O)N4CC(F)(F)C4)c(F)c3)cccn2c1=O", "%", 80.4),
    ("O=C(c1ccc(-c2cccn3c(=O)cc(C(F)(F)F)nc23)cc1)N1CCCC(F)(F)C1", "%", 74.8),
    ("O=C(NC1CCOCC1)c1ccc(-c2cccn3c(=O)c(Br)c(C(F)(F)F)nc23)cc1F", "%", 86.3),
    ("O=C(c1ccc(-c2cccn3c(=O)cc(C(F)(F)F)nc23)cc1)N1CCCC(O)(C(F)(F)F)C1 (centres unmarked)", "%", 101),
]

----------
- testedTarget: hGluR1 flip (Homo sapiens, UniProt P42261)
- Construct: expressed in transfected cells; host or cells: CHO-K1
- protocolNotes: AMPA receptor function-enhancing activity using calcium influx as index
- Assay type: cell-based
- condition: test compound 30 μM with 3 mM glutamic acid; CHO-K1/GluR1 flip/stargazin-expressing cells; 100% = 3 mM glutamic acid + 300 μM cyclothiazide, 0% = 3 mM glutamic acid alone
measuredAttribute: activation at 30 µM (%)

# chemicalSmiles, measuredAttribute, observedMeasurement
records = [
    ("CN(CCC#N)C(=O)c1ccc(-c2cccn3c(=O)c(Cl)c(C(F)(F)F)nc23)cc1", "activation at 30 µM", 85.9),
    ("Cc1c(C(F)(F)F)nc2c(-c3ccc(C(=O)N(C)C4CCOCC4)c(F)c3)cccn2c1=O", "activation at 30 µM", 103),
    ("O=C(c1ccc(-c2cccn3c(=O)c(Br)c(C(F)(F)F)nc23)cc1F)N1CCOC(F)(F)C1", "activation at 30 µM", 72.3),
    ("O=C(c1ccc(-c2cccn3c(=O)c(Br)c(C(F)(F)F)nc23)cc1F)N1CCOCC1", "activation at 30 µM", 77.3),
]
